- Measured On: Glucocorticoid receptor (Homo sapiens) (UniProt P04150)
- Sequence (P04150 whole entry, looked up): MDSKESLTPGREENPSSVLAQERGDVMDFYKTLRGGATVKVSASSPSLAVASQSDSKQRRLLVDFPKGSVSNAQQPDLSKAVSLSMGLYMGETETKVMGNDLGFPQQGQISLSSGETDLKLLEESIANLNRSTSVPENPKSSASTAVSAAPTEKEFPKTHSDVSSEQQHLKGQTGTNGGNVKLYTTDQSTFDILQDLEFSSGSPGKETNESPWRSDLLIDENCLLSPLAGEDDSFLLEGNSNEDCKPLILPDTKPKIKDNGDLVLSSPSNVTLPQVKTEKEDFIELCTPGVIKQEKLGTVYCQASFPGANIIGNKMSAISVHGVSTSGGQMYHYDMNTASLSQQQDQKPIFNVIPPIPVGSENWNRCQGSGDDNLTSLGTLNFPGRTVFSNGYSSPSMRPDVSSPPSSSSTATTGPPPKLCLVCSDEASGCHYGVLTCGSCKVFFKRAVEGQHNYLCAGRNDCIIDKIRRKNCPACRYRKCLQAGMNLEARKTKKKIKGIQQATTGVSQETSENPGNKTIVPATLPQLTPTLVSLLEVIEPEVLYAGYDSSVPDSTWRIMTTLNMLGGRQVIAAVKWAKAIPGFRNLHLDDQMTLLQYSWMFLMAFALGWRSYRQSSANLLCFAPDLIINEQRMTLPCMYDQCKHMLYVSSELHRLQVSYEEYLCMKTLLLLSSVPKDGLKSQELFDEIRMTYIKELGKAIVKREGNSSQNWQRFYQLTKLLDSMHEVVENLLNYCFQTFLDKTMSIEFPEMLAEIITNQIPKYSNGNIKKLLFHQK
- Experimental Details: GR-GFP Redistribution (AID 450); also: potency is read from the fitted curve at half-maximal effect
- Test Context: U2OS GR-GFP nuclear translocation, laser cytometry, 2 h
The source made the active and inactive calls.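 The calls were made as follows: active = compounds whose dose series gives a full or clear partial fitted curve of increased nuclear translocation; inconclusive = weak partial curve or effect only at the top dose; inactive = no dose-dependent translocation response.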
Endpoint Name: Potency

# annotated cases, reported Potency shown
Cc1ccccc1-c1cncnc1N1CCN(C)CC1
> 46 µM (inactive)
COc1ccc2[nH]cc(CCNc3nc(-c4cccc(NS(C)(=O)=O)c4)nc4ccccc34)c2c1
> 46 µM (inactive)
COc1ccccc1CNc1ccnc(-c2ccc(N(C)C)cc2)n1
> 46 µM (inactive)
COc1ccc2[nH]cc(CCNc3cc(-c4ccccc4Cl)ncn3)c2c1
> 46 µM (inactive)
CCNc1ncc2nc(-c3cccs3)c(=O)n(Cc3ccc(F)cc3)c2n1
> 9.22 µM (inactive)
COc1ccc2[nH]cc(CCNc3ccnc(-c4ccoc4)n3)c2c1
> 46 µM (inactive)
COc1ccc(CNc2ccnc(-c3c(C)noc3C)n2)c(OC)c1
> 46 µM (inactive)
COCCn1c(=O)c(-c2ccc(OC)cc2)nc2cnc(Oc3cccc(Cl)c3)nc21
> 9.22 µM (inactive)

The reported value for "CN(C)C(=O)c1ccc(-c2nccc(NCc3cccnc3)n2)cc1" in terms of Potency is > 46 µM (inactive)

The reported value for "COc1ccccc1-c1nccc(Nc2ccc(F)cc2)n1" in terms of Potency is > 46 µM (inactive)

The reported value for "c1ccc(CNc2ncncc2-c2ccc3c(c2)OCO3)cc1" in terms of Potency is > 46 µM (inactive)
